Below: a set of entries, each annotated with reported melting point.

Please review the following examples before continuing.
> print(dat)
                                   compound  quantity.kind   result.value
1  CCC1c2cccn2-c2ccc(F)cc2N1S(=O)(=O)c1ccc(OC)c(Cl)c1 (centres undefined)  melting point  152 to 154 °C
2  COc1cc(N)c(Cl)cc1C(=O)N[C@H]1CCN(C2CCC3(CC2)OCC(C)(C)CO3)C[C@H]1OC (relative stereo)  melting point         188 °C

Input line: If you can, please state the reported melting point value of N#CNC(=Nc1ccccc1)NCCNCC(O)COc1ccccc1C#N (centres undefined) .
Output line: 146 to 147 °C

Input line: Also check `Nc1cc(-c2ccncc2)cc2nc(-c3ccco3)nn12`
Output line: 294 to 296 °C

Input line: Also check `Clc1ccc(N2CCN(CCCc3c4c(nn3-c3ccccc3)CCCC4)CC2)cc1`
Output line: 127 to 129 °C

Input line: Also check `CN1CC(C(=O)c2oc(C3CCS(=O)(=O)CC3)cc2Cc2ccc(F)cc2)=C(O)C1=O`
Output line: 200 to 203 °C

Input line: Also check `COc1ccc(N2CCN(c3ccc([N+](=O)[O-])cn3)CC2)cc1`
Output line: 165 to 166 °C

----------
Below: a set of entries, each annotated with reported melting point.

> print(dat)
                                   compound  quantity.kind   result.value
1  CS(=O)(=O)c1ccc(-n2nc(C(F)(F)F)cc2-c2ccc(-c3ccoc3)cc2)cc1  melting point  165 to 166 °C

// moving on: another record for melting point
Input line: If you can, please state the reported melting point value of `CC(C)(C)c1cc(/C=C(\C#N)C(=O)NCCCc2ccccc2)cc(C(C)(C)C)c1O` .
Output line: 209 °C

----------
Below: a set of entries, each annotated with reported melting point.
Kindly answer with a numeric value in °C, unit omitted.

> print(dat)
                molecule  unit.abbreviation  result.value
1  O=Cc1cccnc1Nc1ccccc1F                 °C            94

// moving on: another record for melting point
Input line: If you can, please state the reported melting point value of CCOC(=O)c1cn(C)c2nc3c(F)c(N4CCNC(c5ccccc5)C4)c(F)cc3cc2c1=O (racemic) .
Output line: 216

----------
Quantity Kind: melting point

> print(dat)
                                    molecule  quantity.kind   result.value
 1  N#Cc1cnn2c1N(C(=O)CN1CCN(Cc3ccccc3F)CC1)CC=C2c1cccc(C(F)(F)F)c1  melting point  188 to 190 °C
 2  O=C(CCCCCBr)NC(C(=O)c1ccc(Cl)cc1)c1ccc(Cl)cc1 (configuration not stated)  melting point         105 °C
 3   CN(C)c1ccc2c(c1)C(=O)N(c1ccc3ccsc3c1)C2  melting point  195 to 197 °C
 4  CC1(C)CC(=O)C(Br)(Cc2ccc(Cl)cc2)C(Br)C1 (configuration not stated)  melting point    82 to 84 °C
 5  COC(=O)CCCc1cc2nc(Cl)ccc2n1S(=O)(=O)c1ccc(F)c([N+](=O)[O-])c1  melting point  129 to 131 °C
 6  CCC(C)Cc1c(-c2ccc(C(N)=S)cc2Cl)c(C)nc2ncnn12 (configuration not stated)  melting point  173 to 177 °C
 7                    NC(=O)c1ccc(Cl)c(Br)c1  melting point  146 to 147 °C
 8  Cn1ccnc1SCC(O)(Cn1cncn1)c1ccc(Cl)cc1Cl (configuration not stated)  melting point  159 to 161 °C
 9  CC(=O)C1C(Cl)CC2C3CCC4CC(O)CCC4(C)C3C(=O)CC21C (configuration not stated)  melting point  226 to 227 °C
10  CCOc1cc2c(cc1OCC)C(=C(C#N)SCC(CN1CCOCC1)OC(C)=O)NCC2 (configuration not stated)  melting point         133 °C

// moving on: another record for melting point
Input line: If you can, please state the reported melting point value of `CC(C)(C)C(=O)c1ccc(CSCc2ccc(C(=O)C(C)(C)C)cc2)cc1` .
Output line: 64 to 65 °C

----------
Quantity Kind: melting point

Please review the following examples before continuing.
> print(dat)
                                   compound   result.value
1  O=C(O)c1cccc(CN2C(=O)C3(COc4cc5c(cc43)OCCO5)c3ccccc32)c1 (centres undefined)  254 to 258 °C
2  CC(=O)OC1CC2=CCC3C4CCC(C(C)CCCC(C)C)C4(C)CCC3C2(C)C(O)C1O (centres undefined)  131 to 133 °C
3  CCOc1cc(OCC)cc(-c2cncn2-c2ccc(S(C)(=O)=O)cc2)c1  100 to 101 °C

Input line: If you can, please state the reported melting point value of `CC(C)(C)c1nc(S(C)(=O)=O)n(-c2c(Cl)cc(Cl)cc2Cl)n1` .
Output line: 179 to 180 °C

Input line: Also check COC(=O)Nc1nc2cc(S(=O)CC3CC3)ccc2[nH]1 (centres undefined)
Output line: 223 to 224 °C

Input line: Also check `O=S1(=O)N=C(NC2CCCC2)Nc2sc(Cl)cc21`
Output line: 280 to 282 °C

Input line: Also check `CCN1C(=O)C(C)(C)C(=O)N(C)c2cc(CCN(CCn3cc(C)c4oc(C)cc4c3=O)Cc3cnccc3C)ccc21`
Output line: 155 to 156 °C

Input line: Also check `CCCn1nc2c(N)nc3ccccc3c2c1CCNC(=O)NC(C)C`
Output line: 197 to 198 °C

Input line: Also check `CCC(=C(c1ccc(O)cc1)c1ccc(O)cc1)c1cccc(/C=C/C(=O)O)c1`
Output line: 280 to 281 °C

Input line: Also check `c1ccc(-c2ccc(-c3nc4c5ccccc5ccn4n3)cc2)cc1`
Output line: 203 to 205 °C

Input line: Also check `CC(COc1ccc2ccc(Oc3c(F)cc(C(F)(F)F)cc3Cl)cc2c1)=NO`
Output line: 153 °C

Input line: Also check CCOP(=O)(Cc1ccc(NC(=O)C(Cc2ccccc2)C(=O)O)cc1)OCC (centres undefined)
Output line: 160 to 161 °C

Input line: Also check `CC(=O)N(CCCOc1ccc(C(=O)O)cc1)c1ccc(Cl)cc1`
Output line: 169 to 171 °C

Input line: Also check `Cc1nnc2c(-c3cccc(C(F)(F)F)c3)cncn12`
Output line: 157 to 159 °C

Input line: Also check `Cn1ccnc1Sc1ccccc1[N+](=O)[O-]`
Output line: 117 to 119 °C

Input line: Also check `CCC12CC3CC(CC(C)(C3)C1)C2`
Output line: < 80 °C

Input line: Also check `CS(=O)(=O)N1CCN(c2ccc3c(c2)N2CCN=C2C(c2ccccc2)=[N+]3[O-])CC1`
Output line: 252 to 253 °C

Input line: Also check `CC(C)NC(=O)C1=C(C(=O)Nc2ccc(Cl)cc2F)CCCC1`
Output line: 188 to 189 °C

Input line: Also check `N#CC=CNCC(=O)c1cccc(Cl)c1Cl`
Output line: 125 to 127 °C

----------
Below: a set of entries, each annotated with reported melting point.

Please review the following examples before continuing.
> print(dat)
                                   compound  quantity.kind   result.value
1  COc1ccc2c(c1)OC(CCO)C(=O)N2Cc1cccc([N+](=O)[O-])c1 (stereo not given)  melting point  116 to 118 °C
2  CCOCc1nc2c(N)nc3cc(-c4ccccc4)cnc3c2n1CC(C)(C)F  melting point  173 to 174 °C
3  C=CCOc1cc(-n2c(=O)cc(C(F)(F)F)n(C)c2=O)c(F)cc1Br  melting point         120 °C

Input line: If you can, please state the reported melting point value of `CCCCc1c(C(=O)OCC)cc(O)c2ccccc12` .
Output line: 117 to 120 °C

Input line: Also check `NN(Cc1ccccc1[N+](=O)[O-])c1ccc(Cl)cc1`
Output line: 105 to 106 °C

----------
Below: a set of entries, each annotated with reported melting point.

Please review the following examples before continuing.
> print(dat)
                                    compound  quantity.kind   result.value
 1  Clc1ccc(Nc2nnc(-c3ccc(-c4ccccc4)cc3)s2)cc1Cl  melting point         306 °C
 2  OCCCCCCC1CCC2C(C=CC3=CCCc4c3n2c2ccncc42)C1 (stereo not given)  melting point  101 to 102 °C
 3  CCOc1cccc(-c2cnc3[nH]cc(C(=O)C(C)(C)C)c3n2)c1  melting point  195 to 196 °C
 4        Nc1cc(=O)n(Cc2ccc(Br)c(Cl)c2)[nH]1  melting point  145 to 146 °C
 5  COc1c(OCc2ccc(-c3ccccc3S(=O)(=O)Nc3noc(C)c3C)c(COCCF)c2)cc(C)nc1C  melting point    81 to 86 °C
 6  COC(=O)CCC(=NOCc1ccc(OCCc2nc(-c3ccccc3)oc2C)cc1)c1ccccc1  melting point    73 to 74 °C
 7  COc1cccc(Sc2ccc3c(c2)CC[C@H]2NC(=O)CC[C@]32C)c1  melting point  154 to 156 °C
 8  c1ccc(CNc2nnc(-c3ccc(CN4CCCCCC4)s3)s2)cc1  melting point  165 to 166 °C
 9                       O=C(O)Cc1onc(O)c1Cl  melting point         155 °C
10  O=[N+]([O-])c1c(NC2CC2)ncnc1N1CCc2ccccc2CC1  melting point  135 to 138 °C

Input line: If you can, please state the reported melting point value of `CC(=O)[C@H]1CC[C@H]2[C@@H]3CCC4=C/C(=N/OC(=O)[C@@H](NC(=O)OC(C)(C)C)C(C)C)CC[C@]4(C)[C@H]3CC[C@]12C` .
Output line: 147 to 149 °C

Input line: Also check `COc1ccc2c(C(=O)N(CC(=O)O)C(=O)N(C)C)cccc2c1C(F)(F)F`
Output line: 145 to 147 °C

Input line: Also check `COC(=O)c1cc(C(=O)OC)cc(P(=O)(c2ccccc2)c2ccccc2)c1`
Output line: 170 to 171 °C

Input line: Also check `CCOCc1nc2c(N)nc3cc(-c4cccnc4)ccc3c2n1CC(C)(C)O`
Output line: 197 to 199 °C

Input line: Also check `CCN(C)c1nc(-c2ccc(OC)c(OC)c2)nc2sc(C#N)c(C)c12`
Output line: 133 to 135 °C

Input line: Also check CC1CCC(c2ccc(Cl)c(C(F)(F)F)c2)=NN1S(=O)(=O)c1ccc(I)cc1 (stereo not given)
Output line: 157 to 158 °C

Input line: Also check `O=C(/C=C/[C@@H]1[C@H]2CC(=O)O[C@H]2C[C@H]1OC(=O)c1ccccc1)COc1ccccc1`
Output line: 132 °C
